molecular target: CDKs and other kinases (Homo sapiens); construct: other: CDK7H; residual activity (%) at 10 μM CDK7H; compound at 10 μM; assay: Radiometric kinase assay (Eurofins Pharma Discovery or Reaction Biology Corporation Kinase Profiler); format: biochemical; conditions: CDK7H; read-out: CDK inhibition, Ki (μM) CDK7H
outcomeMeasure: Ki (µM)

Worked examples, 2 compounds total:
| givenSmiles | unitSymbol | Ki |
| --- | --- | --- |
| Fc1cnc(NC2CCNCC2)nc1-c1cnc2ccccn12 | µM | 0.6 |
| Fc1cnc(N[C@H]2CC[C@H](NC3CCOCC3)CC2)nc1-c1cnc2ccc(-c3ccccc3)cn12 | µM | 0.094 |

I = COC(=O)CN1CCC(Nc2ncc(F)c(-c3cnc4ccccn34)n2)CC1
II = N[C@H]1CC[C@H](Nc2ncc(Cl)c(-c3cnc4ccc(Br)cn34)n2)CC1
III = N[C@H]1CC[C@H](Nc2ncc(Cl)c(-c3cnc4ccc(C(F)(F)F)cn34)n2)CC1
IV = Fc1cnc(NC2CCN(CC3CC3)CC2)nc1-c1cnc2ccc(-c3ccccc3)cn12
V = CS(=O)(=O)N[C@H]1CC[C@H](Nc2ncc(Cl)c(-c3cnc4ccc(Br)cn34)n2)CC1
rank_up(items): orders items by reported Ki in ascending numerical order. Field: ranking. Enter the labels in the order requested.
V, II, III, IV, I

* * *

Target: T1, CDKs and other kinases (Homo sapiens, UniProt P24941)
T1 construct: other: CDK2A; residual activity (%) at 10 μM CDK2A; compound at 10 μM
Test: Radiometric kinase assay (Eurofins Pharma Discovery or Reaction Biology Corporation Kinase Profiler)
Assay type: biochemical
Conditions: CDK2A; read-out: CDK inhibition, Ki (μM) CDK2A
Procedure: Eurofins Pharma Discovery or Reaction Biology Corporation Kinase Profiler services were used to measure inhibition of CDKs and other kinases by radiometric assay. Inhibition of CDK4/D1, CDK6/D3 and CDK9/T1 were also determined in-house using ADP Glo Kinase assays (Promega Corporation, Madison, USA). […] Luminescence was measured using an EnVision Multilabel plate reader (PerkinElmer, Buckinghamshire, UK). […]
outcomeMeasure: Ki (µM)

Worked examples, 2 molecules total:
| molecule | measuredValue |
| --- | --- |
| Cc1cnc(N[C@H]2CC[C@H](NC(C)C)CC2)nc1-c1cnc2ccc(Nc3cncnc3)cn12 | 0.86 |
| N[C@H]1CC[C@H](Nc2ncc(Cl)c(-c3cnc4ccc(-c5cccnc5)cn34)n2)CC1 | 0.26 |

I = N[C@H]1CC[C@H](Nc2ncc(Cl)c(-c3cnc4c(-c5cccnc5)cc(C(F)(F)F)cn34)n2)CC1
II = Cc1cnc(N[C@H]2CC[C@H](N)CC2)nc1-c1cnc2ccc(Nc3cccnn3)cn12
Of I and II , whose reported Ki is the larger number? Mark your answer with the label of the selected entry.
II

* * *

molecular target: CDK4/D1 (Homo sapiens); experiment: ADP Glo Kinase assay CDK4/D1; assay type: biochemical; settings: CDK4D1; compound at 10 μM; read-out: residual activity (%) at 10 μM CDK4D1
Sequence (P11802 whole entry): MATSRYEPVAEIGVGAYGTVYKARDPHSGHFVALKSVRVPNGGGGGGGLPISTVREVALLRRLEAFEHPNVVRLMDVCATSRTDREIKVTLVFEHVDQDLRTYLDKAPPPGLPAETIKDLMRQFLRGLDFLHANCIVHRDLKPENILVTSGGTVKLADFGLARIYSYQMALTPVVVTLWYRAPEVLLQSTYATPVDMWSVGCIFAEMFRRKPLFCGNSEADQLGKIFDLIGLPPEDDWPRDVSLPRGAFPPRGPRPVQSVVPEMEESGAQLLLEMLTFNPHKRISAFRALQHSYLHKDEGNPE
Sequence (P24385 whole entry partner): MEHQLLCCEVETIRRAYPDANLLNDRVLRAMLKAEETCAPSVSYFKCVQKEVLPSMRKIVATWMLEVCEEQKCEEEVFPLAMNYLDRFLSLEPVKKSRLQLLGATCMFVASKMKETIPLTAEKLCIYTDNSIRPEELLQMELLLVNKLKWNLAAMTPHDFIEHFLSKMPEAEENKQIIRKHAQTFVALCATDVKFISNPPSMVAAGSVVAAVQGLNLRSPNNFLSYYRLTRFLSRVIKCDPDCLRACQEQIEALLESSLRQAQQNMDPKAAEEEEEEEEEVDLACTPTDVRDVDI
outcomeMeasure: remaining activity at 10 µM (%)

1 = Cc1cnc(N[C@H]2CC[C@H](N)CC2)nc1-c1cnc2cc(-c3ccccc3)ccn12
2 = N[C@H]1CC[C@H](Nc2ncc(F)c(-c3cnc4cc(-c5cccnc5)ccn34)n2)CC1
3 = CCN[C@H]1CC[C@H](Nc2ncc(C)c(-c3cnc4ccc(-c5ccccc5)cn34)n2)CC1
4 = Cc1cnc(N[C@H]2CC[C@@H](N3CCC3)CC2)nc1-c1cnc2ccc(-c3ccccc3)cn12
5 = Cc1cnc(N[C@H]2CC[C@H](C(=O)O)CC2)nc1-c1cnc2ccc(Nc3cncnc3)cn12
Rank items: key remaining activity at 10 µM, increasing. Field: ranking. Enter the labels in the order requested.
1, 2, 3, 4, 5
(1: 0%, 2: 5%, 3: 24%, 4: 48%, 5: 92%)

P = Cc1cnc(N[C@H]2CC[C@H](N)CC2)nc1-c1cnc2cc(-c3cccnc3)ccn12
Q = Cc1cnc(N[C@H]2CC[C@H](N)CC2)nc1-c1cnc2cc(Nc3cccnc3)ccn12
Select one. Lower remaining activity at 10 µM: P or Q Mark your answer with the label of the selected entry.
P

Numbers sourced from patent US11111245B2.
